Tested on: RAW-Dual
assayName: NF-kB SEAP reporter activity, fold change vs agonist alone; cytotoxicity flag (confluency mask): not cytotoxic; higher = enhanced NF-kB activity
particulars: agonist: Pam2CSK4 (TLR2/6) 0.1 ug/mL
Whole data set: some 2,900 compounds, median “NF-kB SEAP reporter activity, fold change vs agonist alone” near 0.99, cut for the highest 2% near 2.6. The sample as a whole holds a higher share of the highest values than the screen did.
NF-kB SEAP reporter activity values by entry
Answer as a number with no unit attached.

Recorded results for 4 molecules are shown here.
molecule: O=c1nc(N2CCOCC2)oc2c(-c3cccc4c3sc3ccccc34)cccc12 (library stock concentration (final ~1000-fold dilution): 10 mM)
targetOrTestSystem: RAW-Dual
dataValue: 0.718
//
molecule: C=C1C(CO)C(O)CC1n1cnc2c(=O)nc(N)[nH]c21 (configuration not stated) (library stock concentration (final ~1000-fold dilution): 10 mM)
targetOrTestSystem: RAW-Dual
dataValue: 1.37
//
molecule: Cc1cc(Nc2nc(NC(C)c3ccc(F)cc3)c(C#N)cc2F)n[nH]1 (configuration not stated) (library stock concentration (final ~1000-fold dilution): 10 mM)
targetOrTestSystem: RAW-Dual
dataValue: 1.44
//
molecule: O=C(O)CCCN1CCC(OC(c2ccc(Cl)cc2)c2ccccn2)CC1.O=S(=O)(O)c1ccccc1 (configuration not stated) (library stock concentration (final ~1000-fold dilution): 10 mM)
targetOrTestSystem: RAW-Dual
dataValue: 1.01

Request: I have this molecule here, CC1c2cccc(O)c2C(=O)C2=C(O)C3(O)C(=O)C(C(N)=O)=C(O)C(N(C)C)C3C(O)C21.CC1c2cccc(O)c2C(=O)C2=C(O)C3(O)C(=O)C(C(N)=O)=C(O)C(N(C)C)C3C(O)C21.CCO.Cl.Cl.O (configuration not stated) (library stock concentration (final ~1000-fold dilution): 10 mM) , and I need its recorded NF-kB SEAP reporter activity.
Result: 1.26

Request: For the molecule CS(=O)(=O)N1CCN(Cc2cc3nc(-c4cccc5[nH]ncc45)nc(N4CCOCC4)c3s2)CC1 (library stock concentration (final ~1000-fold dilution): 10 mM) , what NF-kB SEAP reporter activity is on record?
Result: 1.02

Request: Consider the molecule shown here: C=C1CC23CCC4C(C)(C(=O)O)CCCC4(C)C2CCC1C3 (configuration not stated) (library stock concentration (final ~1000-fold dilution): 10 mM) What is its recorded NF-kB SEAP reporter activity?
Result: 0.65

====

Tested on: RAW-Dual
assayName: NF-kB SEAP reporter activity, fold change vs agonist alone; cytotoxicity flag (confluency mask): cytotoxic (confluency <70% of control); higher = enhanced NF-kB activity
particulars: agonist: ODN 1826 (TLR9) 0.5 ug/mL
Over roughly 2,900 compounds, “NF-kB SEAP reporter activity, fold change vs agonist alone” has its median near 0.99; the highest 2% begin near 2.6. Only a selection was taken, and the highest values are over-represented in it overall.
propertyMeasured: NF-kB SEAP reporter activity
Give only the figure.

molecule: COc1cc2ncnc(Nc3cccc(Cl)c3)c2cc1OC (library stock concentration (final ~1000-fold dilution): 10 mM)
propertyMeasured: NF-kB SEAP reporter activity
dataValue: 0.692
--
molecule: Cl.Cl.O=c1cc(CN2CCOCC2)occ1OCCCCCSc1ccnc2cc(C(F)(F)F)ccc12 (library stock concentration (final ~1000-fold dilution): 10 mM)
propertyMeasured: NF-kB SEAP reporter activity
dataValue: 0.603

Request: Requested field: NF-kB SEAP reporter activity. Item: C#Cc1cccc(Nc2ncnc3cc(OC)c(OCCCCCCC(=O)NO)cc23)c1 (library stock concentration (final ~1000-fold dilution): 10 mM)
Result: 1.67

Values compiled from the supplement of paper PMC10037445.
